Experiment summary: Moisture sorption (DVS) profile
Assay type: physicochemical
Assay context: by 95% relative humidity
Experimental endpoint: moisture sorption weight gain (%)

A: CO[C@]1(CN2CCN3CCCC[C@@H]3C2)/C=C/C[C@H](C)[C@@H](C)S(=O)(=O)NC(=O)c2ccc3c(c2)N(C[C@@H]2CC[C@H]21)C[C@@]1(CCCc2cc(Cl)ccc21)CO3 [hydrate form 3]
B: CO[C@]1(CN2CCN3CCCC[C@@H]3C2)/C=C/C[C@H](C)[C@@H](C)S(=O)(=O)NC(=O)c2ccc3c(c2)N(C[C@@H]2CC[C@H]21)C[C@@]1(CCCc2cc(Cl)ccc21)CO3 [hydrate form 2]
**Q:** Rank A against B by their moisture sorption weight gain values and give the higher one. // caller expects the label of the chosen entry
**A:** B

---

Experiment summary: Moisture sorption (DVS) profile
Format: physicochemical
Assay context: by 95% relative humidity
Experimental endpoint: moisture sorption weight gain (%)

Compound: CO[C@]1(CN2CCN3CCCC[C@@H]3C2)/C=C/C[C@H](C)[C@@H](C)S(=O)(=O)NC(=O)c2ccc3c(c2)N(C[C@@H]2CC[C@H]21)C[C@@]1(CCCc2cc(Cl)ccc21)CO3 [anhydrous form 4]
moisture sorption weight gain [%]: 4.5

A: CO[C@]1(CN2CCN3CCCC[C@@H]3C2)/C=C/C[C@H](C)[C@@H](C)S(=O)(=O)NC(=O)c2ccc3c(c2)N(C[C@@H]2CC[C@H]21)C[C@@]1(CCCc2cc(Cl)ccc21)CO3 [hydrate form 1]
B: CO[C@]1(CN2CCN3CCCC[C@@H]3C2)/C=C/C[C@H](C)[C@@H](C)S(=O)(=O)NC(=O)c2ccc3c(c2)N(C[C@@H]2CC[C@H]21)C[C@@]1(CCCc2cc(Cl)ccc21)CO3 [anhydrous form 6]
**Q:** Rank A against B by their moisture sorption weight gain values and give the higher one. // caller expects the label of the chosen entry
**A:** B
